Tested on: CD2F1 mice, L1210 leukemia ip, survival T/C
test.description: NCI In Vivo Anticancer Drug Screen. Data for tumor model L1210 Leukemia (intraperitoneal) in CD2F1 (CDF1) mice
settings: endpoint: mean survival time; dose: 400.0 mg/kg/injection; schedule: Q04DX003 (ip); vehicle: saline with Tween-80; higher = longer survival
Toxic doses and inconclusive results are not listed.
The entries below come with measured T/C values attached.

Worked cases, answers included:
Lab note: measured T/C of `Brc1cn[nH]c1Br` was 88 % of control

Lab note: measured T/C of `Cc1cc(C)nc(N)n1` was 98 % of control

Lab note: measured T/C of `Cc1cc(N(CCCl)CCCl)ccc1C1N(Cc2ccc(N(C)C)cc2)CCCN1Cc1ccc(N(C)C)cc1` was 108 % of control

Further cases:
Lab note: measured T/C of `Cc1cccc(/C=N\OCCc2ccccc2)n1` was 91 % of control

Lab note: measured T/C of `c1ccc(NN=C(c2ccccc2)c2ccccc2)cc1` was 98 % of control

Lab note: measured T/C of `Clc1cccc(-c2nc3ccccc3c3ccccc23)c1` was 98 % of control

Lab note: measured T/C of O=C(O)CC(NC(=O)OCc1ccccc1)C(=O)OCc1ccccc1 (stereo not drawn) was 87 % of control

---

Tested on: CD2F1 mice, L1210 leukemia ip, survival T/C
test.description: NCI In Vivo Anticancer Drug Screen. Data for tumor model L1210 Leukemia (intraperitoneal) in CD2F1 (CDF1) mice
settings: endpoint: mean survival time; dose: 200.0 mg/kg/injection; schedule: Q01DX009 (ip); vehicle: saline with Tween-80; higher = longer survival
Toxic doses and inconclusive results are not listed.
The entries below come with measured T/C values attached.

Worked cases, answers included:
Lab note: measured T/C of `CC(C)(C)c1ccc(SCC#CCOc2ccc(Cl)cc2)cc1` was 91 % of control

Lab note: measured T/C of CC(O)CN1CCOCC1 (stereo not drawn) was 105 % of control

Lab note: measured T/C of `C1=CC(=P(c2ccccc2)(c2ccccc2)c2ccccc2)C=C1` was 100 % of control

Lab note: measured T/C of `CSc1ccccc1C1=CCCCCC1` was 94 % of control

Lab note: measured T/C of `COc1cc(C(C)(C)C)cc(OC)c1C(O)(c1c(OC)cc(C(C)(C)C)cc1OC)c1c(OC)cc(C(C)(C)C)cc1OC` was 88 % of control

Lab note: measured T/C of `CN(C)C/C(=N\OC(=O)c1ccccc1)c1ccc(Cl)cc1` was 96 % of control

Lab note: measured T/C of `Nc1ccccc1O` was 114 % of control

Lab note: measured T/C of `O=S(O)C(=Nc1ccccc1)Nc1ccccc1` was 106 % of control

Further cases:
Lab note: measured T/C of `C=CC(=O)Nc1cccc(OC(=O)NCC)c1` was 92 % of control

Lab note: measured T/C of CCOC(=O)C1CC(C(=O)OCC)C(=O)C1=O (stereo not drawn) was 103 % of control

Lab note: measured T/C of `Cc1cc(C)cc(NC(=O)c2ccccc2N)c1` was 95 % of control

Lab note: measured T/C of `COc1ccc(OC)c(NC(=O)Oc2ccc(-c3ccccc3)cc2Cl)c1` was 102 % of control

Lab note: measured T/C of CCC(C)(O)c1ccccc1 (stereo not drawn) was 95 % of control
